system: Mus musculus; test: Effect on memory formation in Albino mouse assessed as memory of negative experience by measuring dark room entry at […], po administered through intragastric tube measured after 7 days by conditioned avoidance test; format: functional, organism-based; conditions: time 7.0 day
Activity calls are given as the source filed them. The rule behind the calls is not given here.
Labels: active, inactive

>  <compound>
CC(C)CCc1c(O)nc(SCCN(C)C)[nH]c1=O

>  <subjectOfTest>
Mus musculus

>  <classLabel>
inactive

$$$$
>  <compound>
CSCCc1c(O)nc(SCCN2CCCCC2)[nH]c1=O

>  <subjectOfTest>
Mus musculus

>  <classLabel>
inactive

$$$$
>  <compound>
CC(C)c1c(O)nc(SCCN2CCCC2)[nH]c1=O.Cl

>  <subjectOfTest>
Mus musculus

>  <classLabel>
inactive

$$$$
>  <compound>
CC(C)c1c(O)nc(N2CCSCC2)[nH]c1=O

>  <subjectOfTest>
Mus musculus

>  <classLabel>
inactive

$$$$
>  <compound>
CCCC(C)c1c(O)nc(SCCN2CCCC2)[nH]c1=O (stereo not drawn)

>  <subjectOfTest>
Mus musculus

>  <classLabel>
inactive

$$$$
>  <compound>
CC(C)c1c(O)nc(SCCN2CCCCC2)[nH]c1=O

>  <subjectOfTest>
Mus musculus

>  <classLabel>
active

$$$$
>  <compound>
CCN(CC)CCSc1nc(O)c(CCSC)c(=O)[nH]1

>  <subjectOfTest>
Mus musculus

>  <classLabel>
inactive

$$$$
>  <compound>
CCCC(C)c1c(O)nc(SCCN(C)C)[nH]c1=O (stereo not drawn)

>  <subjectOfTest>
Mus musculus

>  <classLabel>
inactive

$$$$
>  <compound>
CSCCc1c(O)nc(SCCN2CCCC2)[nH]c1=O

>  <subjectOfTest>
Mus musculus

>  <classLabel>
inactive

$$$$
>  <compound>
CC(C)CCc1c(O)nc(SCCN2CCCCC2)[nH]c1=O

>  <subjectOfTest>
Mus musculus

>  <classLabel>
inactive

$$$$
>  <compound>
CSCCSc1nc(O)c(C(C)C)c(=O)[nH]1

>  <subjectOfTest>
Mus musculus

>  <classLabel>
active

$$$$
>  <compound>
CCN(CC)CCSc1nc(O)c(C(C)C)c(O)n1

>  <subjectOfTest>
Mus musculus

>  <classLabel>
active

$$$$
>  <compound>
CC(C)c1c(O)nc(SCCN(C)C)nc1O

>  <subjectOfTest>
Mus musculus

>  <classLabel>
active

$$$$
>  <compound>
CCCC(C)c1c(O)nc(SCCN(CC)CC)[nH]c1=O.Cl (stereo not drawn)

>  <subjectOfTest>
Mus musculus

>  <classLabel>
inactive

$$$$
>  <compound>
CCCC(C)c1c(O)nc(SCCN2CCCCC2)[nH]c1=O (stereo not drawn)

>  <subjectOfTest>
Mus musculus

>  <classLabel>
inactive

$$$$
>  <compound>
CCN(CC)CCSc1nc(O)c(CCC(C)C)c(=O)[nH]1

>  <subjectOfTest>
Mus musculus

>  <classLabel>
inactive

$$$$
>  <compound>
CSCCc1c(O)nc(SCCN(C)C)[nH]c1=O

>  <subjectOfTest>
Mus musculus

>  <classLabel>
inactive

$$$$
>  <compound>
CC(C)CCc1c(O)nc(SCCN2CCCC2)[nH]c1=O

>  <subjectOfTest>
Mus musculus

>  <classLabel>
inactive

$$$$
